# ASSAY_REMARKS: Toxicokinetic evaluation of 14-day repeated intragastric administration to SD rats
# Assay type: in vivo
# CONDITION_SUMMARY: both sexes, SD, rat, plasma, po, 5 mg/kg, repeated intragastric 5 mg/kg, Day 14, read-out: Clearance CL/F
OBSERVED_PROPERTY: CL/F at 14 day
Answer with the value and then the unit.

## Task Give recorded CL/F at 14 day. `Cc1ccc(F)c([C@H](C)Nc2nc(=O)n(C3CCOCC3)c(=O)[nH]2)c1`
## Result 2.8 mL/min/kg

* * *

# ASSAY_REMARKS: Toxicokinetic evaluation of 14-day repeated intragastric administration to SD rats
# Format: in vivo
# CONDITION_SUMMARY: both sexes, SD, rat, plasma, po, 5 mg/kg, repeated intragastric 5 mg/kg, Day 7, read-out: Area under curve AUC
OBSERVED_PROPERTY: AUC at 7 day (ng·h/mL)
Give bare numbers, in ng·h/mL.

## Task Give recorded AUC at 7 day. Cc1ccc(F)c([C@H](C)Nc2nc(=O)n(C3CCOCC3)c(=O)[nH]2)c1 [Example 16]
## Result 28100

* * *

# ASSAY_REMARKS: Toxicokinetic evaluation of 14-day repeated intragastric administration to SD rats
# Type: in vivo
# CONDITION_SUMMARY: both sexes, SD, rat, plasma, po, 1.5 mg/kg, repeated intragastric 1.5 mg/kg, Day 14, read-out: Plasma concentration Cmax
OBSERVED_PROPERTY: Cmax at 14 day (ng/mL)
Numbers only, in ng/mL.

## Task Give Cmax at 14 day for CC(C)n1c(=O)cc(N[C@@H](C)c2ccccc2)[nH]c1=O [MYK-461, reference compound]
## Result 333

* * *

# ASSAY_REMARKS: Toxicokinetic evaluation of 14-day repeated intragastric administration to SD rats
# Type: in vivo
# CONDITION_SUMMARY: both sexes, SD, rat, plasma, po, 0.5 mg/kg, repeated intragastric 0.5 mg/kg, Day 7, read-out: Residence time MRT
OBSERVED_PROPERTY: MRT at 7 day (h)
Answers are plain numbers, in h.

## Task Report MRT at 7 day, nothing else, for this molecule: CC(C)n1c(=O)cc(N[C@@H](C)c2ccccc2)[nH]c1=O [MYK-461, reference compound]
## Result 21.3

* * *

# ASSAY_REMARKS: Toxicokinetic evaluation of 14-day repeated intragastric administration to SD rats
# Assay type: in vivo
# CONDITION_SUMMARY: both sexes, SD, rat, plasma, po, 1.5 mg/kg, repeated intragastric 1.5 mg/kg, Day 7, read-out: Clearance CL/F
OBSERVED_PROPERTY: CL/F at 7 day
State the value, then name its unit.

## Task Give the reported value of CL/F at 7 day for this record: CC(C)n1c(=O)cc(N[C@@H](C)c2ccccc2)[nH]c1=O [MYK-461, reference compound]
## Result 3.58 mL/min/kg

* * *

# ASSAY_REMARKS: Toxicokinetic evaluation of 14-day repeated intragastric administration to SD rats
# Assay type: in vivo
# CONDITION_SUMMARY: both sexes, SD, rat, plasma, po, 15 mg/kg, repeated intragastric 15 mg/kg, Day 1, read-out: Residence time MRT
OBSERVED_PROPERTY: MRT at 1 day (h)
Numbers only, in h.

## Task Return MRT at 1 day (reported value) for this compound: `Cc1ccc(F)c([C@H](C)Nc2nc(=O)n(C3CCOCC3)c(=O)[nH]2)c1`
## Result 5.4

* * *

# ASSAY_REMARKS: Toxicokinetic evaluation of 14-day repeated intragastric administration to SD rats
# Assay type: in vivo
# CONDITION_SUMMARY: both sexes, SD, rat, plasma, po, 1.5 mg/kg, repeated intragastric 1.5 mg/kg, Day 1, read-out: Residence time MRT
OBSERVED_PROPERTY: MRT at 1 day (h)
Answers are plain numbers, in h.

## Task Specify measured MRT at 1 day for CC(C)n1c(=O)cc(N[C@@H](C)c2ccccc2)[nH]c1=O [MYK-461, reference compound] .
## Result 28.2

* * *

# ASSAY_REMARKS: Toxicokinetic evaluation of 14-day repeated intragastric administration to SD rats
# Type: in vivo
# CONDITION_SUMMARY: both sexes, SD, rat, plasma, po, 5 mg/kg, repeated intragastric 5 mg/kg, Day 14, read-out: Area under curve AUC
OBSERVED_PROPERTY: AUC at 14 day
Kindly report the value followed by its unit.

## Task For the molecule `Cc1ccc(F)c([C@H](C)Nc2nc(=O)n(C3CCOCC3)c(=O)[nH]2)c1` , give its measured AUC at 14 day value.
## Result 29800 ng·h/mL

* * *

# ASSAY_REMARKS: Pharmacokinetic evaluation in cynomolgus monkeys
# Type: in vivo
# CONDITION_SUMMARY: both (Example 16), male (MYK-461), cynomolgus monkey, plasma, po, intragastric administration, 2 mg/kg, read-out: Residence time MRT
OBSERVED_PROPERTY: MRT (h)
Give bare numbers, in h.

# COMPOUND, OBSERVED_PROPERTY, MEASURE_UNIT, OBSERVED
data = [
    ("CC(C)n1c(=O)cc(N[C@@H](C)c2ccccc2)[nH]c1=O [MYK-461, reference compound]", "MRT", "h", 114),
]

## Task Annotate the compound Cc1ccc(F)c([C@H](C)Nc2nc(=O)n(C3CCOCC3)c(=O)[nH]2)c1 [Example 16] with its measured MRT.
## Result 12.5

* * *

# ASSAY_REMARKS: Toxicokinetic evaluation of 14-day repeated intragastric administration to SD rats
# Type: in vivo
# CONDITION_SUMMARY: both sexes, SD, rat, plasma, po, 3 mg/kg, repeated intragastric 3.0 mg/kg, Day 1, read-out: Half-life T1/2 (converted)
# Procedure: With SD rats as test animals, the plasma concentrations of the test compounds and the concentrations of the original forms of the compounds in the administration solutions were measured by LC/MS/MS at different time points after intragastric administration. The toxicokinetic performance of the compound disclosed herein was studied in SD rats and its toxicokinetic profile was evaluated. […]
OBSERVED_PROPERTY: half-life at 1 day (min)
Give bare numbers, in min.

## Task Give the reported half-life at 1 day for this molecule. CC(C)n1c(=O)cc(N[C@@H](C)c2ccccc2)[nH]c1=O [MYK-461, reference compound]
## Result 1710

* * *

# ASSAY_REMARKS: Toxicokinetic evaluation of 14-day repeated intragastric administration to SD rats
# Format: in vivo
# CONDITION_SUMMARY: both sexes, SD, rat, plasma, po, 3 mg/kg, repeated intragastric 3.0 mg/kg, Day 1, read-out: Plasma concentration Cmax
OBSERVED_PROPERTY: Cmax at 1 day (ng/mL)
Numbers only, in ng/mL.

## Task Provide only the value of recorded Cmax at 1 day for CC(C)n1c(=O)cc(N[C@@H](C)c2ccccc2)[nH]c1=O [MYK-461, reference compound]
## Result 297

* * *

# ASSAY_REMARKS: Toxicokinetic evaluation of 14-day repeated intragastric administration to SD rats
# Assay type: in vivo
# CONDITION_SUMMARY: both sexes, SD, rat, plasma, po, 3 mg/kg, repeated intragastric 3.0 mg/kg, Day 7, read-out: Plasma concentration Cmax
# Procedure: With SD rats as test animals, the plasma concentrations of the test compounds and the concentrations of the original forms of the compounds in the administration solutions were measured by LC/MS/MS at different time points after intragastric administration. The toxicokinetic performance of the compound disclosed herein was studied in SD rats and its toxicokinetic profile was evaluated. […]
OBSERVED_PROPERTY: Cmax at 7 day

## Task Could you please provide reported Cmax at 7 day for CC(C)n1c(=O)cc(N[C@@H](C)c2ccccc2)[nH]c1=O [MYK-461, reference compound] ? Thanks!
## Result 0.628 µg/mL

* * *

# ASSAY_REMARKS: Toxicokinetic evaluation of 14-day repeated intragastric administration to SD rats
# Format: in vivo
# CONDITION_SUMMARY: both sexes, SD, rat, plasma, po, 3 mg/kg, repeated intragastric 3.0 mg/kg, Day 14, read-out: Plasma concentration Cmax
OBSERVED_PROPERTY: Cmax at 14 day

## Task Tell me Cmax at 14 day reported for CC(C)n1c(=O)cc(N[C@@H](C)c2ccccc2)[nH]c1=O [MYK-461, reference compound]
## Result 0.767 µg/mL

* * *

# ASSAY_REMARKS: Toxicokinetic evaluation of 14-day repeated intragastric administration to SD rats
# Type: in vivo
# CONDITION_SUMMARY: both sexes, SD, rat, plasma, po, 15 mg/kg, repeated intragastric 15 mg/kg, Day 1, read-out: Clearance CL/F
OBSERVED_PROPERTY: CL/F

## Task Consider the molecule `Cc1ccc(F)c([C@H](C)Nc2nc(=O)n(C3CCOCC3)c(=O)[nH]2)c1` . State its measured CL/F.
## Result 3.08 mL/min/kg
